Biological target: Receptor-type tyrosine-protein phosphatase C (Homo sapiens)
Sequence (P08575 whole entry): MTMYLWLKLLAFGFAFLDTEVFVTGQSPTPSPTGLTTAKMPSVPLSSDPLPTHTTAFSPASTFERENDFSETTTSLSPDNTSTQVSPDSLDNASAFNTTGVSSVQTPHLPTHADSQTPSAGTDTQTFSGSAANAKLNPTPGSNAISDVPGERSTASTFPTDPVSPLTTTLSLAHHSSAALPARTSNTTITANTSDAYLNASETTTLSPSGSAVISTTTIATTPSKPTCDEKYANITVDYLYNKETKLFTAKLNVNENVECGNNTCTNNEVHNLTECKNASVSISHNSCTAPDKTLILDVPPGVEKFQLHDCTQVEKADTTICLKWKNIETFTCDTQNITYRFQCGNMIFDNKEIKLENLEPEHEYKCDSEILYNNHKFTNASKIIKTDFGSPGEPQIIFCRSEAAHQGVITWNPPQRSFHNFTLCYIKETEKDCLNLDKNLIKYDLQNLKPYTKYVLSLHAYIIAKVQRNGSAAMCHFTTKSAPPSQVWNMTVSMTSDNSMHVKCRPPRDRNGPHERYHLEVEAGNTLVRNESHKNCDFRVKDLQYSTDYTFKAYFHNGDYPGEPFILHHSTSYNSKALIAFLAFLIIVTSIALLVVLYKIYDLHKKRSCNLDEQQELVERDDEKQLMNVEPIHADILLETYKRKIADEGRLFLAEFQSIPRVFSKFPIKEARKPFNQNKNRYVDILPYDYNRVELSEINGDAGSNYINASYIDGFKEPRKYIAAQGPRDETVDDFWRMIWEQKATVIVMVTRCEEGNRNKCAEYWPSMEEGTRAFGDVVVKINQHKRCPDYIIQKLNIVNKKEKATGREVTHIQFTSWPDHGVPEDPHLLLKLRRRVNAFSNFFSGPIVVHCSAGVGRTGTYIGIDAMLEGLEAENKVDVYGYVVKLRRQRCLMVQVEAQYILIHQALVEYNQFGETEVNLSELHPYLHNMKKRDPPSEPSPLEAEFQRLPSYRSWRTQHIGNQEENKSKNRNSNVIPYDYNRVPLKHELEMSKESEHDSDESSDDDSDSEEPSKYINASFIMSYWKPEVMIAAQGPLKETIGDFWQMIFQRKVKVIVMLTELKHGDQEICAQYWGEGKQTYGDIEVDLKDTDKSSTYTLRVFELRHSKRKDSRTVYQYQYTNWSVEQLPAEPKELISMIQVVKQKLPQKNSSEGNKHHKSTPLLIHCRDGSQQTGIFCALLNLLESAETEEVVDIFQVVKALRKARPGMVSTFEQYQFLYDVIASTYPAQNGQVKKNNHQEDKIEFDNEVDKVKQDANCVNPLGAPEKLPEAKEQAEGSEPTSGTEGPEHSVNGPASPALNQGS
For each entry below, report its pIC50 value.
Give bare numbers, as −log10 of the molar value.

Use the examples below as a reference point.
O=P(O)(O)C(F)(F)c1ccc(CC(Cc2ccc(C(F)(F)P(=O)(O)O)c(Br)c2)(c2ccccc2)n2nnc3ccccc32)cc1 (stereo not drawn): 4.60
COC(CC(C)C)c1ccc2cc(-c3ccc(CC(Cc4ccc(C(F)(F)P(=O)(O)O)cc4)(c4ccccc4)n4nnc5ccccc54)cc3)cc(P(=O)(O)O)c2n1 (stereo in doubt; 21c): 4.30

GET /value?item= COC(CC(C)C)c1ccc2cc(-c3ccc(CC(Cc4ccc(C(F)(F)P(=O)(O)O)cc4)(c4ccccc4)n4nnc5ccccc54)cc3)cc(P(=O)(O)O)c2n1 (stereo in doubt; 21a) &field=pIC50 returns 4.30
